- SYSTEM: UniProtKB P10415
- Sequence (P10415 whole entry, looked up): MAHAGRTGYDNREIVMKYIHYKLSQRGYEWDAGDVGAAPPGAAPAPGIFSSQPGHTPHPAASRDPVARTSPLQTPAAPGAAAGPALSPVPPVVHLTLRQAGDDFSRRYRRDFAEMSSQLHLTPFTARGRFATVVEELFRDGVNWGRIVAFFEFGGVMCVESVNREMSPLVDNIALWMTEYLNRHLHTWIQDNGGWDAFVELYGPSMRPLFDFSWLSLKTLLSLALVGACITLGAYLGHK
MEASUREMENT_LABEL: Ki (nM)

The following molecules have reported results that may help.
O=C(O)c1ccccc1-c1cccc2c1c(-c1ccccc1)cn2Cc1cccc2ccccc12 | 820
O=C(O)c1ccc(Cl)cc1-c1cccc2c1ccn2CCCOc1cccc2ccccc12 | 490

A. Cc1cccc(-c2cn(CCCOc3cccc4ccccc34)c3cccc(-c4ccccc4C(=O)O)c23)c1
B. COc1ccccc1-c1cn(CCOc2cccc3ccccc23)c2cccc(-c3ccccc3C(=O)O)c12
C. O=C(O)c1ccccc1-c1cccc2c1c(-c1cccc(Cl)c1)cn2CCOc1cccc2ccccc12
Ask: Order these by Ki, descending, and give the full ranking. Give the labels in the order specified.
Reply: C, B, A

----------
pKi: −log10 of the molar value.
Record set of pKi for target or system Apoptosis regulator Bcl-2 (Homo sapiens).
MEASUREMENT_LABEL: pKi

# example entries with known answers
Cc1ccc(-c2cn(CCOc3cccc4ccccc34)c3cccc(-c4ccccc4C(=O)O)c23)cc1 | 6.06
CCc1ccccc1-c1cn(CCOc2cccc3ccccc23)c2cccc(-c3ccccc3C(=O)O)c12 | 6.52

I. Cc1cccc(-c2cn(CCOc3cccc4ccccc34)c3cccc(-c4ccccc4C(=O)O)c23)c1
II. O=C(O)c1ccccc1-c1cccc2c1c(-c1cccc(Cl)c1)cn2Cc1cccc2ccccc12
Ask: Please indicate which entry, I or II , has the lower recorded pKi value. # answer = label of selected item
Reply: I
